Could you please report measured %Inh for the items listed next?
Tested on: PAK7
Settings: concentration: 1 μM, replicates: in singlicate; n = 1;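 note: KINOMEscan kinase panel screen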
The response must be a number in % with no trailing unit.

Give the measured %Inh of Cc1cccc(-c2nc(C)cc(Nc3ccncc3)n2)n1 . 0

What do you get for Cc1csc(-c2nc(Nc3ccncc3)c3ccccc3n2)n1 ? 8

Okay, and Cn1ccc2ncnc(Oc3ccc(NC(=O)Nc4ccccc4)cc3)c21 ? 0

* * *

Field: %Inh. Provide a value for each of the molecules that follow.
Test system: MAP4K4
Settings: concentration: 1 μM, replicates: in singlicate; n = 1
# output: numeric value plus its unit

Form field - read-out: %Inh; system: MAP4K4; submitted item: Cc1nnc(-c2ccc3occ(-c4ccc(S(C)=O)cc4)c3c2)[nH]1 (stereo not drawn) 0%

Please answer likewise for O=C(Nc1ccc2c(c1)OCO2)NC1CCN(c2ccnc(Nc3ccc(F)cc3)n2)C1 (stereo not drawn) [GSK1379724] 8%

What do you have for CN(C)CCN(C)C(=O)c1cc(-c2ccncc2)c(-c2ccc(Cl)c(O)c2)o1.Cl.Cl [SB-710397] ? 18%

Would you kindly repeat that for Cc1ccc(NC(=O)Nc2cc(C(C)(C)C)nn2-c2ccccc2)cc1 [GSK1014915] ? 19%

Lookup Cl.NC(=O)c1cccc(Nc2nccc(Nc3ccc(Oc4cccc(Cl)c4)c(Cl)c3)n2)c1 [GW659008] 18%

// same read-out, input: Cc1cccc(-c2nc(-c3ccc(S(C)(=O)=O)cc3)sc2-c2ccnc(NCCc3ccccc3)c2)c1 0%

Next molecule up: COc1ccc2nc(-c3cccc(C)n3)nc(Nc3ccncc3)c2c1 [GSK204919] 0%

Likewise for Cn1ccc2ncnc(Oc3cccc(C(=O)Nc4ccccc4)c3)c21 ? 8%

Same question for Cc1csc(-c2nc(Nc3ccncc3)c3ccccc3n2)n1 [GW869640] please. 14%

* * *

Tested on: RIOK3
Conditions: concentration: 1 μM, replicates: in singlicate; n = 1
measurement-type: %Inh (%)
Give the quantity in %, number only.

Field request: %Inh | item: Cc1ccc(NC(=O)Nc2cc(C(C)(C)C)nn2-c2ccccc2)cc1 0

Param item: COc1ccc(CNC(=O)NC2CCN(c3ccnc(Nc4cc(OC)c(OC)c(OC)c4)n3)C2)cc1 (stereo not drawn) 32

What do we get for Cc1csc(-c2nc(Nc3ccncc3)c3ccccc3n2)n1 ? 1

* * *

Task for the reader: assign each of the following compounds its reported %Inh.
Test system: PAK3
Settings: concentration: 1 μM, replicates: in singlicate; n = 1
Only the number, expressed in %, is required.

Record request: %Inh value, item Cn1ccc2ncnc(Oc3cccc(C(=O)Nc4ccccc4)c3)c21 9

Again, but for Cc1nnc(-c2ccc3occ(-c4ccc(S(C)=O)cc4)c3c2)[nH]1 (centres unmarked) 17

Continue with Cl.O=C(Nc1cccc(-c2nn3ncccc3c2-c2ccnc(Nc3cccnc3)n2)c1)c1c(F)cccc1F 9

And what about the compound COc1cc2ncnc(Nc3ccc4nc(-c5ccccc5)[nH]c4c3)c2cc1OC.Cl ? 0

Entry to check: CC(C)(C)c1ccc(C(=O)Nc2cn3cc(-c4cccnc4)ccc3n2)cc1 51

Try the compound CC1=C(C(=O)Nc2cc3cn[nH]c3cc2F)C(c2ccc(C(F)(F)F)cc2)CC(=O)N1 (centres unmarked) 45

And then COc1ccc(CNC(=O)NC2CCN(c3ccnc(Nc4cc(OC)c(OC)c(OC)c4)n3)C2)cc1 (centres unmarked) , what is it? 0

Moving on to Cc1cc(NCC(c2ccccc2)c2ccccc2)nc(NCc2ccc(C(F)(F)F)cc2)n1 0

Moving on to the next compound: COc1cccc(-c2cc(-c3c[nH]nc3-c3ccccn3)ccn2)c1 9

Check O=C1NC(=O)C(N2CCc3ccccc32)=C1c1ccccc1Cl too. 100

Also check Cc1cccc(-c2cc(Nc3ccncc3)c3ccccc3n2)n1 0

Could you do the same for Cl.c1ccc(-c2n[nH]cc2-c2ccnc(-c3ccc(CN4CCOCC4)cc3)c2)nc1 , please? 10

Now consider Cc1csc(-c2nc(Nc3ccncc3)c3ccccc3n2)n1 and answer again. 28

Do the same for Cn1cncc1-c1ccc2ncnc(Nc3ccc(OCc4ccccc4)cc3)c2c1 please 2

Quick one: COc1ccc(C2=C(Nc3cccc(C(=O)O)c3)C(=O)NC2=O)cc1 0

What do we get for CC(C)(C)c1ccc(C(=O)Nc2cn3cc(Cl)ccc3n2)cc1 ? 0

Field entry: O=C(Nc1ccccc1)Nc1cccc(Oc2ccc3nccn3n2)c1 0

Also need Cc1cccc(-c2nc(-c3ccc(S(C)(=O)=O)cc3)sc2-c2ccnc(NCCc3ccccc3)c2)c1 , thanks. 0

Would you mind doing COc1cc(Nc2nccc(N3CCC(NC(=O)Nc4cc(C)ccc4C)C3)n2)cc(OC)c1OC (centres unmarked) as well? 29

Also COc1ccccc1CNC(=O)c1cc(C(=O)c2ccccc2C)c[nH]1 , if possible. 0

Next entry: C[C@@H]1CCCCN1c1cc(-c2ccc3c(N)n[nH]c3c2)nc(N)n1 0

Param item: Cc1ccc(-c2cc(-c3c[nH]nc3-c3ccccn3)ccn2)cc1 0

Query Nc1ncnc2[nH]c(-c3ccccc3)nc12 next 100
